Entry source: patent US20200017592A1

Biological target: T1, human IL-36R extracellular domain expressed with a C-terminal mouse IgG2a Fc tag (hIL-36R-mFc) (human; mouse, UniProt Q9HB29 20-337)
T1 construct: not shown: mouse IgG2a Fc, E98-K330
T1 sequence (looked up): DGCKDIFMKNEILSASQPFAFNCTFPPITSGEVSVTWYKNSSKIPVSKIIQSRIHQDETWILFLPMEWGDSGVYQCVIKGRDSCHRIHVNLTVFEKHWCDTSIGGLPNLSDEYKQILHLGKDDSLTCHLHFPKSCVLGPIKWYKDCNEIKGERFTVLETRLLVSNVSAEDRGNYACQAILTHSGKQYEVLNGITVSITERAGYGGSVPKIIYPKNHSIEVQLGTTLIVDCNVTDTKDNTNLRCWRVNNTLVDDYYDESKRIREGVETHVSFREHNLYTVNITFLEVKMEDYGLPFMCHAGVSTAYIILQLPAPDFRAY
Experiment: SPR Biacore 4000, mAb captured on anti-hFc, 25C
Protocol: Equilibrium dissociation constants (KD values) for IL-36R binding to purified anti-IL-36R antibodies were determined using a real-time surface plasmon resonance biosensor using a Biacore 4000 instrument. […] Kinetic association rate constant (kₐ) and dissociation rate constant (kd) were determined by fitting the real-time sensorgrams to a 1:1 binding model using Scrubber 2.0c curve fitting software. […]
quantityKind: t1/2 (h)
Respond with the bare value in h.

Completed entries (count: 5):
binder	t1/2, h
H4H14709P (antibody, human IgG4 S228P, kappa, V domains shown, Fully human anti-IL-36R antibody) VH: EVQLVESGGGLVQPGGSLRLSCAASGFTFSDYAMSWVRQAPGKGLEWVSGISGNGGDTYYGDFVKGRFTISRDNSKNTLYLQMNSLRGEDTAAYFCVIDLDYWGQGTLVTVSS VL: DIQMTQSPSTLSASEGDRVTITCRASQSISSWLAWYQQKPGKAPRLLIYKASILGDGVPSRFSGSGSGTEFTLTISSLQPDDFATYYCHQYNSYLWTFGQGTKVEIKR	2.23
H4H14758P (antibody, human IgG4 S228P, kappa, V domains shown, Fully human anti-IL-36R antibody) VH: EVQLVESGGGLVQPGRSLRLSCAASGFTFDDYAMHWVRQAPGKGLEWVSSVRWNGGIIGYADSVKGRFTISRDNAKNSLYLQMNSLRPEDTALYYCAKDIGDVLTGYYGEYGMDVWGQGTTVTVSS VL: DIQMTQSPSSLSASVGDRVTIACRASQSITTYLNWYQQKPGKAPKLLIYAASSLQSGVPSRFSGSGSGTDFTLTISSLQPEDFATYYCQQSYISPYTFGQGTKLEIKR	1.18
H4H14706P2 (antibody, human IgG4 S228P, kappa, V domains shown, Fully human anti-IL-36R antibody) VH: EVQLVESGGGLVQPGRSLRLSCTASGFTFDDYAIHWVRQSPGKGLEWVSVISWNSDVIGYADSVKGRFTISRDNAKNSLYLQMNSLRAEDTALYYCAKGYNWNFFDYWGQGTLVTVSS VL: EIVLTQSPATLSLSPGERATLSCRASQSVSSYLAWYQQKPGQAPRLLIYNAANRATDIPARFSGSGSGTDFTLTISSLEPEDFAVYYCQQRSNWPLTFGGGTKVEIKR	1.45
H4H14700P2 (antibody, human IgG4 S228P, kappa, V domains shown, Fully human anti-IL-36R antibody) VH: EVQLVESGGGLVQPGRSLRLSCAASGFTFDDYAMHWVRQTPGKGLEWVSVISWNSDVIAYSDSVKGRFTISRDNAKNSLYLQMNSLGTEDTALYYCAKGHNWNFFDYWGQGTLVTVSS VL: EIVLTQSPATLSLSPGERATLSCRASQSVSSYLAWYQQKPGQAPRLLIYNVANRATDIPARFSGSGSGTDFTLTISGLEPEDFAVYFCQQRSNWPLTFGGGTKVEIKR	1.6
H4H14708P2 (antibody, human IgG4 S228P, kappa, V domains shown, Fully human anti-IL-36R antibody) VH: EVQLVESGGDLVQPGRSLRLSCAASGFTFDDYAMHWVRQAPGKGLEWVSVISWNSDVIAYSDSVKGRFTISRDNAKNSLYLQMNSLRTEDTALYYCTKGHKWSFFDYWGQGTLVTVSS VL: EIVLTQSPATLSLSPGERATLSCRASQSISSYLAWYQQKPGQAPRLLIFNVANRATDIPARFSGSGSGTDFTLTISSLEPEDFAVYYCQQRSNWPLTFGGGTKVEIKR	1.5

Which t1/2 reading was recorded for the binder H4H14757P (antibody, human IgG4 S228P, kappa, V domains shown, Fully human anti-IL-36R antibody) VH: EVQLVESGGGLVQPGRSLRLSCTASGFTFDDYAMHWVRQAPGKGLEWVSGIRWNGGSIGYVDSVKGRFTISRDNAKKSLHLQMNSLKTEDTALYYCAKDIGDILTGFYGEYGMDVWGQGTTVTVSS VL: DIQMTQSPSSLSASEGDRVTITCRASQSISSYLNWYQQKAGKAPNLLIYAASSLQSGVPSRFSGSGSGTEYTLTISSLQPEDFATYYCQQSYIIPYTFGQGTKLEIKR ?
1.93
